- System name: human ether-à-go-go-related gene (hERG) potassium channel (human, UniProt Q12809);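 further: peak tail current of the secondary pulse compared with the same well before compound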
- Sequence (Q12809 whole entry, looked up): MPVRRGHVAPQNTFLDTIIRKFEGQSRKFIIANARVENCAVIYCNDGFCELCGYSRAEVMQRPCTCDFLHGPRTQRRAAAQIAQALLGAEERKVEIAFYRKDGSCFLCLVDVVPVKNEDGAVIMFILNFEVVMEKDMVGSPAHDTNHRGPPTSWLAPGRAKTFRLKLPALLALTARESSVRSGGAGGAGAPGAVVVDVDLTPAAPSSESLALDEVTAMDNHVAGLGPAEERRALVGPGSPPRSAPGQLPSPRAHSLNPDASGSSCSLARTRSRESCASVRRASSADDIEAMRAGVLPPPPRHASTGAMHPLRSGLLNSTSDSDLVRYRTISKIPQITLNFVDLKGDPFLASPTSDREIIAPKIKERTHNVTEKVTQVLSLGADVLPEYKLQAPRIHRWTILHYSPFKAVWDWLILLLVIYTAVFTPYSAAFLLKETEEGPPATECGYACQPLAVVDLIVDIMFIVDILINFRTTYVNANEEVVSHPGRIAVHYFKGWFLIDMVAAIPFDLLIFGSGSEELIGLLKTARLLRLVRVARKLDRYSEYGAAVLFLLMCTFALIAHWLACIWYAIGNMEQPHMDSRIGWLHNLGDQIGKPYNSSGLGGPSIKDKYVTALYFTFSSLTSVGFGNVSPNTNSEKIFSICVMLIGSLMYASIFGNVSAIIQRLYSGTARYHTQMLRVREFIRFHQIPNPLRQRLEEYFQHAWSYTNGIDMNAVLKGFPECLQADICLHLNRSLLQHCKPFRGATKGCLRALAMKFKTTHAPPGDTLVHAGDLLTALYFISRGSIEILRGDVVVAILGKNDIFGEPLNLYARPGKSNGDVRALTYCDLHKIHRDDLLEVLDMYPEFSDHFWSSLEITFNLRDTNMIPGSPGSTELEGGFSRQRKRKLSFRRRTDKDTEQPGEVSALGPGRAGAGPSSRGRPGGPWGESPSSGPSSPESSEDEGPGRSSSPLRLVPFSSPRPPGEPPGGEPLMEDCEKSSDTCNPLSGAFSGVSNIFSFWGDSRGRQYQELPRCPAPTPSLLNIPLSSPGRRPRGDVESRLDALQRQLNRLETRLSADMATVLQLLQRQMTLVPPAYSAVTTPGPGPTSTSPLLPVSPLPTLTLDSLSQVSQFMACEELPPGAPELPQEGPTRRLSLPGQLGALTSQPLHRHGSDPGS
- Assay protocol: primary screen, population patch clamp on CHO cells stably expressing hERG; higher = less effect of the substance
The whole screen tested about 310,000 compounds, of which about 14,000 (4.5%) showed an effect of 50% or more. The effect is printed as a negative number. This excerpt belongs to a sample that is enriched for strong results.
Listing of entries alongside the reported hERG current change (%, negative = inhibition) at 10uM.
// units = %; emit number, no label

// worked examples, hERG current change (%, negative = inhibition) at 10uM included
COC(=O)Cn1cc(C(=O)c2ccccc2F)c2ccccc21    -1.29
Clc1ccc2nc(C3CCN(Cc4ccccc4)CC3)[nH]c2c1    -73.4
COCCN1C(=O)N(c2cccc(C)c2)C(=O)C1CC(=O)Nc1cc(OC)cc(OC)c1 (centres unmarked)    10.2
CN1CCN(C(=O)c2cc3ccccc3[nH]2)CC1    -3.26

// moving on: another record for hERG current change (%, negative = inhibition) at 10uM
query: So what does the record say about hERG current change (%, negative = inhibition) at 10uM for CCOc1ccc(N(C)S(=O)(=O)c2ccc3[nH]cc(C(=O)NCCCOC)c(=O)c3c2)cc1 ?
result: 3.51
